Ref: patent US9758526B2

compounds and their reported IC50
Target: EGFR (d746-750/T790M) (Homo sapiens, UniProt P00533, DEL746-750/T790M)
Sequence (P00533 with tags, fused parts or gaps DEL746-750/T790M limits assumed): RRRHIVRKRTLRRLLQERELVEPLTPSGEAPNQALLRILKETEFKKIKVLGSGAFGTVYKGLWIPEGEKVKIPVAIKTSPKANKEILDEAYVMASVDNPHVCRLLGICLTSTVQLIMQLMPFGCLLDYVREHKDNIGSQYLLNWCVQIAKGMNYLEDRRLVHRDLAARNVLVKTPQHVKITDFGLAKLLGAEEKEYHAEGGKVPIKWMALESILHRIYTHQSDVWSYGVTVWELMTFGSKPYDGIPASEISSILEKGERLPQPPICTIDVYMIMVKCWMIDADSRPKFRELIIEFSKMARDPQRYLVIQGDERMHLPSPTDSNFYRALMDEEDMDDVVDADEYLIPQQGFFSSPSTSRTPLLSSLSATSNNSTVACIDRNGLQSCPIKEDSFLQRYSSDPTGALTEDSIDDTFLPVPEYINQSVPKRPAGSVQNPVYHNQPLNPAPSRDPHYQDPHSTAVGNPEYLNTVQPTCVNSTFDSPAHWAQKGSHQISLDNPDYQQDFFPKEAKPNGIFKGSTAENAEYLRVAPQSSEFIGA
Assay: EGFR (d746-750/T790M) kinase inhibitory activity
Details: ATP 1.5 μM

Some compounds with known IC50 results, for comparison:
>  <SMILES_REPR>
C=CC(=O)N[C@@H]1Cn2c(c(-c3cnc4ccccc4c3)c3c(N)ncnc32)C1=C

>  <REPORTED_MEASUREMENT>
< 0.15 nM

$$$$
>  <SMILES_REPR>
C=CC(=O)N[C@H]1C=Cc2c(-c3cnc4ccccc4c3)c3c(N)ncnc3n2CC1

>  <REPORTED_MEASUREMENT>
< 0.5 nM

$$$$
>  <SMILES_REPR>
C=CC(=O)N[C@H]1C=C(C)c2c(-c3cnc4ccccc4c3)c3c(N)ncnc3n2C1

>  <REPORTED_MEASUREMENT>
< 0.5 nM

$$$$
>  <SMILES_REPR>
C=C1c2c(-c3cnc4ccccc4c3)c3c(N)ncnc3n2C[C@H]1NC(=O)/C=C/CN(C)C

>  <REPORTED_MEASUREMENT>
< 0.5 nM

$$$$

Returns the measured IC50 for the input compound. Input: C#CC(=O)N[C@@H]1Cn2c(c(-c3cnc4ccccc4c3)c3c(N)ncnc32)C1=C
< 0.15 nM

---

Target: EGFR (T790M/L858R) (Homo sapiens, UniProt P00533, L858R/T790M)
Construct: purchased Carna Biosciences, Inc
Sequence (P00533 25-1210 T790M/L858R): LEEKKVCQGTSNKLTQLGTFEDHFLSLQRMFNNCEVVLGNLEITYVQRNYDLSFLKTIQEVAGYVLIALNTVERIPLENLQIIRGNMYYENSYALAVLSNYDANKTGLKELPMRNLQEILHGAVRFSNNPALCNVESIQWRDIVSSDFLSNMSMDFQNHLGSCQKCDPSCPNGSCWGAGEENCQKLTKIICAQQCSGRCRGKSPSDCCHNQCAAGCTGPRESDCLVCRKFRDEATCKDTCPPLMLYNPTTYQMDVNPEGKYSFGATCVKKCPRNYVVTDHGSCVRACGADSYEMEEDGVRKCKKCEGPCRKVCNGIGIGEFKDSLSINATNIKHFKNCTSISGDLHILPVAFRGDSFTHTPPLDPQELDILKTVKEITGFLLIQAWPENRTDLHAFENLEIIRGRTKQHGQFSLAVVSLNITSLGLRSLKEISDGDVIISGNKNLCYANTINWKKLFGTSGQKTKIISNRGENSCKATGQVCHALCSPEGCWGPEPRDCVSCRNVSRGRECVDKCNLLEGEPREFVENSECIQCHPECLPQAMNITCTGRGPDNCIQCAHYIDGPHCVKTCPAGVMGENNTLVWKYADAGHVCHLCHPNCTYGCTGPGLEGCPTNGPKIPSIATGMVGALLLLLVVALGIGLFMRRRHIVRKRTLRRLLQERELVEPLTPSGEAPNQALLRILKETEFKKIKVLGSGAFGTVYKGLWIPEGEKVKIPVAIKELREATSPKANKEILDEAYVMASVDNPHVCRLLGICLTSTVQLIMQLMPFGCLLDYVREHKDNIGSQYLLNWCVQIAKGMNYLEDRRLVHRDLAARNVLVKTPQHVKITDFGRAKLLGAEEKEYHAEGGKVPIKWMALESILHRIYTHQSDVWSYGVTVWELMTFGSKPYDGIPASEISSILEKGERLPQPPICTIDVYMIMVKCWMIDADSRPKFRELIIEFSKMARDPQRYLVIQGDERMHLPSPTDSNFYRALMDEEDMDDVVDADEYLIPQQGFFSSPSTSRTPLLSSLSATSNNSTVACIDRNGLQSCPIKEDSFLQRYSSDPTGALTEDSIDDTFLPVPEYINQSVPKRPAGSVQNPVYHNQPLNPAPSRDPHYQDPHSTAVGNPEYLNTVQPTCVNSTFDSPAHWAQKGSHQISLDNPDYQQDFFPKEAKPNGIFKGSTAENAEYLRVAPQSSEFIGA
Experiment: EGFR (T790M/L858R) kinase inhibitory activity
Assay type: biochemical
Conditions: ATP 1 μM, 25° C. for 120 minutes
pIC50: −log10 of the molar value.
METRIC: pIC50

>  <SMILES_REPR>
C=CC(=O)N[C@H]1CC(=C)c2c(-c3cnc4ccccc4c3)c3c(N)ncnc3n2C1

>  <pIC50>
8.80

$$$$

A = C=C1c2c(-c3cnc4ccccc4c3)c3c(N)ncnc3n2C[C@H]1NC(=O)/C=C/CN1CCCCC1
B = C=CC(=O)N[C@H]1C=Cc2c(-c3cnc4ccccc4c3)c3c(N)ncnc3n2C1
I'd appreciate it if you could identify which of A and B has the greater pIC50. Kindly give the label for the entry you pick.
B

---

Target: EGFR (d746-750) (Homo sapiens, UniProt P00533, DEL746-750)
Sequence (P00533 with tags, fused parts or gaps DEL746-750 limits assumed): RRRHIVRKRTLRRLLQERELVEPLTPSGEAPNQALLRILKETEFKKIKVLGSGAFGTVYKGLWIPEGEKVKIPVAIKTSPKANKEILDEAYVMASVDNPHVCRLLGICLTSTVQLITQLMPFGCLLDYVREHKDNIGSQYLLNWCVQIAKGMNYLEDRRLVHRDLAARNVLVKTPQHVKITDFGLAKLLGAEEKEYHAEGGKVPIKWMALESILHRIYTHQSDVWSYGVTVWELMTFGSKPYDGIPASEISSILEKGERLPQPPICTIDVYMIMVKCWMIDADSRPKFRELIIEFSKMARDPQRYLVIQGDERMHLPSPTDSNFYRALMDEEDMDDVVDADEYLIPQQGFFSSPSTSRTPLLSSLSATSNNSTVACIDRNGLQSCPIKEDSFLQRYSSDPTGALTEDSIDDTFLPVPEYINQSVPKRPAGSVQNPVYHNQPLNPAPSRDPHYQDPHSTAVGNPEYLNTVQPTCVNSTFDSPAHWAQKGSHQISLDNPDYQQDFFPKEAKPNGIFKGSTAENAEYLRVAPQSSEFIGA
Experiment: EGFR (d746-750) kinase inhibitory activity
Conditions: ATP 5 μM, kinase reaction 90 minutes
pIC50: −log10 of the molar value.
METRIC: pIC50

Some molecules with known pIC50 results, for comparison:
>  <MOLECULE>
C=CC(=O)N[C@H]1C=Cc2c(-c3cnc4ccccc4c3)c3c(N)ncnc3n2C1 [Example 27]

>  <pIC50>
9.42

$$$$
>  <MOLECULE>
C=CC(=O)N[C@H]1C/C(=C\C)c2c(-c3cnc4ccccc4c3)c3c(N)ncnc3n2C1 [Example 19]

>  <pIC50>
9.38

$$$$

P = C=CC(=O)N(C)[C@@H]1CC(=C)c2c(-c3cnc4ccccc4c3)c3c(N)ncnc3n2C1 [Example 22]
Q = C=C1c2c(-c3cnc4ccccc4c3)c3c(N)ncnc3n2C[C@H]1NC(=O)C=CC (mixture of isomers) [Example 3]
I'd appreciate it if you could identify which of P and Q has the greater pIC50. Kindly give the label for the entry you pick.
P
(P: 9.48, Q: 8.12)

---

Target: EGFR (L858R) (Homo sapiens, UniProt P00533, L858R)
Sequence (P00533 25-1210 L858R): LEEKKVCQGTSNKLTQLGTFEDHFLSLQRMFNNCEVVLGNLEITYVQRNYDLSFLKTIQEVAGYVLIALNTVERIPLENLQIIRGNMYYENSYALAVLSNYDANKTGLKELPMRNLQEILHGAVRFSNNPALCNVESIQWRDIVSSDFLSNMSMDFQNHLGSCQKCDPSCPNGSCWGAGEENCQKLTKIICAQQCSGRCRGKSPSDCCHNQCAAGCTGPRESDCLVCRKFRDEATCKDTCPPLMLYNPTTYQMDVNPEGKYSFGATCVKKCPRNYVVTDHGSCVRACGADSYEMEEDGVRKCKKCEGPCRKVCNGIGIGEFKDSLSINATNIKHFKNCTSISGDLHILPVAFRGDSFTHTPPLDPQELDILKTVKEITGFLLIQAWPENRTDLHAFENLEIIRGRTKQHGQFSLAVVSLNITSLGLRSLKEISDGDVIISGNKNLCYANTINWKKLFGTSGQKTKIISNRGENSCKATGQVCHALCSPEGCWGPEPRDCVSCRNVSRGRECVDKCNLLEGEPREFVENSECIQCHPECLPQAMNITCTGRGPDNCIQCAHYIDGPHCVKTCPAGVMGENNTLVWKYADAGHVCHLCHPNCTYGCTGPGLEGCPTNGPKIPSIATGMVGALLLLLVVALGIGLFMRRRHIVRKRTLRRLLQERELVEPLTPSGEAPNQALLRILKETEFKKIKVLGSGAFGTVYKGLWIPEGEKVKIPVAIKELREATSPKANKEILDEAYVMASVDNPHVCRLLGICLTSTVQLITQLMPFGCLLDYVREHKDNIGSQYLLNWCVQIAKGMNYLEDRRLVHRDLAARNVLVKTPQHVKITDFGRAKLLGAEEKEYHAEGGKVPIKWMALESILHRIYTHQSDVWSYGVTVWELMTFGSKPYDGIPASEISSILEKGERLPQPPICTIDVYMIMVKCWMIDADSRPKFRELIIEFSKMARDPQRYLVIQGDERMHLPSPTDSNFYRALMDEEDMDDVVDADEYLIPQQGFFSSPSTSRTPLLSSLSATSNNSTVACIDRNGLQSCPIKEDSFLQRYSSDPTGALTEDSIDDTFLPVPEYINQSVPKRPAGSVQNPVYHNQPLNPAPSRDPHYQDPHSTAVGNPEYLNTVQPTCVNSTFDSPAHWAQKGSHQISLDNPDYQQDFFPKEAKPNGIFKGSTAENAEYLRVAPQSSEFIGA
Test: EGFR (L858R) kinase inhibitory activity
Settings: ATP 4 μM
pIC50: −log10 of the molar value.
METRIC: pIC50

>  <MOLECULE>
C=CC(=O)N[C@H]1CC(=C)c2c(-c3cnc4ccccc4c3)c3c(N)ncnc3n2C1 [Example 15]

>  <METRIC>
pIC50

>  <REPORTED_MEASUREMENT>
8.89

$$$$
>  <MOLECULE>
C=CC(=O)N(C)[C@H]1Cn2c(c(-c3cnc4ccccc4c3)c3c(N)ncnc32)C1=C [Example 21]

>  <METRIC>
pIC50

>  <REPORTED_MEASUREMENT>
8.96

$$$$

I = C=CC(=O)N(C)[C@@H]1Cn2c(c(-c3cnc4ccccc4c3)c3c(N)ncnc32)C1=C [Example 26]
II = C=C1c2c(-c3cnc4ccccc4c3)c3c(N)ncnc3n2C[C@H]1NC(=O)/C=C/CN(C)C [Example 4]
Of I and II , which shows the smaller pIC50 value? Kindly give the label for the entry you pick.
I
(I: 8.77, II: 9.20)

P = C=C1c2c(-c3cnc4ccccc4c3)c3c(N)ncnc3n2C[C@H]1NC(=O)/C=C/CN1CCCCC1 [Example 7]
Q = C=CC(=O)N(C)[C@@H]1C=C(C)c2c(-c3cnc4ccccc4c3)c3c(N)ncnc3n2C1 [Example 23]
Of P and Q , which shows the smaller pIC50 value? Kindly give the label for the entry you pick.
P

---

Target: EGFR (L858R) (Homo sapiens, UniProt P00533, L858R)
Experiment: EGFR (L858R) kinase inhibitory activity
Settings: ATP 4 μM
pIC50: −log10 of the molar value.
METRIC: pIC50

>  <COMPOUND>
C=C1c2c(-c3cnc4ccccc4c3)c3c(N)ncnc3n2C[C@H]1NC(=O)/C=C/CN(C)C(C)C [Example 12]

>  <REPORTED_MEASUREMENT>
8.92

$$$$
>  <COMPOUND>
C=CC(=O)N[C@@H]1Cn2c(c(-c3cnc4ccccc4c3)c3c(N)ncnc32)C1C (stereo partly drawn) [Example 24]

>  <REPORTED_MEASUREMENT>
8.96

$$$$
>  <COMPOUND>
C=C1c2c(-c3cnc4ccccc4c3)c3c(N)ncnc3n2C[C@H]1NC(=O)/C=C/CN(C)CC [Example 11]

>  <REPORTED_MEASUREMENT>
8.85

$$$$
